Overview of recorded kinase still bound, per cent of control for various molecules
Target: RPS6KA6 KD2 (human) (UniProt Q9UK32)
Sequence (Q9UK32 whole entry, looked up): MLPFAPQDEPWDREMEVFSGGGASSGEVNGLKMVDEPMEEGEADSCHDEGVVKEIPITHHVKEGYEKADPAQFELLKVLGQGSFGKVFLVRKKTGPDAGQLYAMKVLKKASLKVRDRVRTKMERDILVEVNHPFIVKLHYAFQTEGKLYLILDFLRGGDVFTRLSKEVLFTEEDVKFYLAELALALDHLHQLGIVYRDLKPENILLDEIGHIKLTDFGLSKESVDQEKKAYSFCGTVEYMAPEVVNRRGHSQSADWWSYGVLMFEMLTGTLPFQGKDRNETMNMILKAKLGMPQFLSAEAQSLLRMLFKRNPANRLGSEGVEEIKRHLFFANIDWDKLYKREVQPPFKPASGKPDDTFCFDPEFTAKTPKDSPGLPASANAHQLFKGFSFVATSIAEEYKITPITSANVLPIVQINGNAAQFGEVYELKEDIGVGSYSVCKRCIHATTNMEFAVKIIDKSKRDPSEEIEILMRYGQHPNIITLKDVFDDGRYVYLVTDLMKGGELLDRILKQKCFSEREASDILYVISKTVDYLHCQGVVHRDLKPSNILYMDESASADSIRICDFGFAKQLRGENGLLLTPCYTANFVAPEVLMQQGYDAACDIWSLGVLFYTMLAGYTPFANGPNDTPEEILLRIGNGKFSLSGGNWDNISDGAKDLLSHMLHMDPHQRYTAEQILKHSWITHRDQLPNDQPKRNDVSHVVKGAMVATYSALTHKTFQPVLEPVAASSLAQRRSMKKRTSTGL
Test: KINOMEscan competition binding
Settings: compound 10.0 µM
quantity-measured: kinase still bound, per cent of control (%)

1. COc1cc(N2CCC(N3CCN(C)CC3)CC2)ccc1Nc1ncc2c(n1)N1CCCC1CC(=O)N2C (configuration not stated)    17
2. O=C1NC(=S)S/C1=C\c1ccc(-c2cncc3ccccc23)o1    5.4
3. COc1cc(N2CCN(C)CC2)ccc1Nc1ncc2c(n1)N(C1CCCC1)C(C)CC(=O)N2 (configuration not stated)    4.7
4. CSC1=NC(=O)/C(=C/c2ccc(-c3ccc(S(N)(=O)=O)cc3)o2)S1    18
5. COc1cc(N2CCN(C)CC2)ccc1Nc1ncc2c(n1)N1CCC[C@H]1CC(=O)N2    2
6. O=C1NC(=O)/C(=C/c2ccc(-c3ccc(F)cc3O)o2)S1    18
7. CN1C(=O)c2ccccc2N(C)c2nc(Nc3ccc(N4CCC(O)CC4)cc3)ncc21    63
8. CC(C)Oc1cc(N2CCN(C)CC2)ccc1Nc1ncc2c(n1)N(C)c1ccccc1C(=O)N2    21
9. COc1cc(C(=O)NC2CCN(C)CC2)ccc1Nc1ncc2c(n1)N(C1CCC(O)CC1)CCC(=O)N2C (configuration not stated)    22
10. O=C1NC(=O)/C(=C/c2c[nH]c(=O)c(-c3ccc(N4CCNCC4)nc3)c2)S1    29
11. N=C1NC(=O)/C(=C/c2ccc(-c3cccc4cc[nH]c34)o2)S1    30
12. COc1cc(N2CCN(C)CC2)ccc1Nc1ncc2c(n1)N(c1ccccc1)CCC(=O)N2    18
13. COc1cc(N2CCN(C)CC2)ccc1Nc1ncc2c(n1)N(C)c1ccccc1C(=O)N2    14
14. COc1cc(C(=O)NC2CCN(C)CC2)ccc1Nc1ncc2c(n1)N(C1CCCC1)C(C)CC(=O)N2C (configuration not stated)    12
15. COc1cc(C(=O)NC2CCN(C)CC2)ccc1Nc1ncc2c(n1)N(C1CCCC1)CC(C)C(=O)N2C (configuration not stated)    32
16. CN1CCN(c2ccc(C(=O)Nc3ncc4c(n3)N(C)c3ccccc3C(=O)N4C)cc2)CC1    100
17. CN1C(=O)c2ccccc2N(C)c2nc(NS(=O)(=O)c3ccc(N)cc3)ncc21    96
18. COc1cc(N2CCN(C)CC2)ccc1Nc1ncc2c(n1)N(C)c1ccccc1N(C)C2=O    60
19. COc1cc(N2CCN(C)CC2)ccc1Nc1ncc2c(n1)N(C1CCCC1)C(C)CC(=O)N2C (configuration not stated)    16
20. NS(=O)(=O)c1ccc(-c2ccc(/C=C3\SC(=S)N(CC(=O)O)C3=O)o2)cc1    32
21. CCN1CCN(Cc2cc(NC(=O)c3cccc4cc(-c5ccc(/C=C6\SC(=O)NC6=O)o5)ccc34)cc(C(F)(F)F)c2)CC1    20
22. N=C1NC(=O)/C(=C/c2ccc(-c3csc4ccccc34)o2)S1    18
23. N=C1NC(=O)/C(=C/c2ccc(-c3cncc4ccccc34)o2)S1    8.6
24. N=C1NC(=O)/C(=C/c2ccc(-c3ccc4c(C(=O)Nc5ccc(N6CCNCC6)cc5)cccc4c3)o2)S1    22
25. O=C1NC(=O)/C(=C/c2ccc(-c3ccc4c(C(=O)Nc5cccc(C(F)(F)F)c5)cccc4c3)o2)S1    25
26. CC(C)Oc1cc(N2CCC(N(C)C)CC2)ccc1Nc1ncc2c(n1)N1CCC[C@H]1CC(=O)N2C    24
27. COc1cc(N2CCN(C)CC2)ccc1Nc1ncc2c(n1)N(C)c1ccccc1C(=O)N2C    4.9
28. COc1cc(N2CCN(C)CC2)ccc1Nc1ncc2c(n1)N(C)c1sccc1C(=O)N2C    6
29. COc1cc(N2CCC(N3CCN(C)CC3)CC2)ccc1Nc1ncc2c(n1)N(C1CCCC1)C(C)CC(=O)N2C (configuration not stated)    33
30. N=C1NC(=O)/C(=C/c2ccc(-c3ccc(C(=O)Nc4ccc(N5CCNCC5)cc4)cc3O)o2)S1    27
31. COc1cc(N2CCN(C)CC2)ccc1Nc1ncc2c(n1)N1CCC[C@H]1CC(=O)N2C    8.6
32. COc1cc(N2CCC(O)CC2)ccc1Nc1ncc2c(n1)N1CCc3cccc(c31)C(=O)N2C    3.2
33. CN1C(=O)[C@H]2CCC[C@H]2N(C2CCCC2)c2nc(Nc3ccc(C(N)=O)cc3)ncc21    13
34. COc1cc(C(=O)NC2CCN(C)CC2)ccc1Nc1ncc2c(n1)N(C1CCCC1)CCC(=O)N2C    14
35. CCOc1cc(N2CCC(O)CC2)ccc1Nc1ncc2c(n1)N(C)c1ccccc1C(=O)N2C    31
36. COc1cc(N2CCN(C)CC2)ccc1Nc1ncc2c(n1)Nc1ccccc1NC2=O    29
37. COc1cc(N2CCC(N3CCN(C)CC3)CC2)ccc1Nc1ncc2c(n1)N(C1CCCC1)C(C)CC(=O)N2 (configuration not stated)    12

The values you see were collected from the kinase profiling compilation of Christmann-Franck et al. (2016).
